Hi there, I'd appreciate the recorded Papp A→B for every entry that follows.
# Procedure details: Permeability across apical to basolateral side in human Caco2 cells
# Experimental context: Caco-2
Give your result in ×10⁻⁶ cm/s as a bare value.

// Papp A→B lookup, key: CC(=O)N1CCCC(NC(=O)c2ccc3c(C4CCCCC4)c(-c4ccccn4)n(C)c3c2)(C(=O)Nc2ccc(/C=C/C(=O)O)cc2)C1 (racemic)
5.5

Another compound to look at: CN1CC[C@](NC(=O)c2ccc3c(C4CCCCC4)c(-c4ccccn4)n(C)c3c2)(C(=O)Nc2ccc(/C=C/C(=O)O)cc2)C1
7.8

// next record CCN1CC[C@@](NC(=O)c2ccc3c(C4CCCCC4)c(-c4ccccn4)n(C)c3c2)(C(=O)Nc2ccc(/C=C/C(=O)O)cc2)C1
5.6

Next: CN1CCC(NC(=O)c2ccc3c(C4CCCCC4)c(-c4ccccn4)n(C)c3c2)(C(=O)Nc2ccc(/C=C/C(=O)O)cc2)CC1
0.6

Another: Cn1c(C(=O)O)cc2cc(NC(=O)C(C)(C)NC(=O)c3ccc4c(C5CCCCC5)c(-c5ccccn5)n(C)c4c3)ccc21
0.7

====

# Procedure details: Inhibition of HCV 1b NS5B RNA dependent RNA polymerase by scintillation proximity assay
# Set-up: species or system Hepacivirus hominis
Reported property: IC50 (nM)
Answer in nM, number only, no unit symbol.

Report IC50 for Cn1c(-c2ccccn2)c(C2CCCCC2)c2ccc(C(=O)N[C@@]3(C(=O)Nc4ccc(/C=C/C(=O)O)cc4)CCCNC3)cc21 please.
11

Can you handle Cn1c(-c2ccccn2)c(C2CCCCC2)c2ccc(C(=O)NC(C)(C)C(=O)Nc3ccc(-c4ccc(C(N)=O)o4)cc3)cc21 next?
330

Then what about the molecule Cn1c(-c2ccccn2)c(C2CCCCC2)c2ccc(C(=O)NC3(C(=O)Nc4ccc(/C=C/C(=O)O)cc4)CCOCC3)cc21 ?
68

Moving on to Cn1c(-c2ccccn2)c(C2CCCCC2)c2ccc(C(=O)NC(C)(C)C(=O)Nc3ccc(NC(=O)C(N)=O)cc3)cc21
124

Query Cn1c(C(=O)O)cc2cc(NC(=O)C(C)(C)NC(=O)c3ccc4c(C5CCCCC5)c(-c5ccccn5)n(C)c4c3)ccc21 next
75

Can you check Cn1c(-c2ccccn2)c(C2CCCCC2)c2ccc(C(=O)NC(C)(C)C(=O)Nc3ccc(NC(=O)C(=O)O)cc3)cc21 next?
34

Could you do the same for Cc1c(C(=O)O)sc2ccc(NC(=O)[C@]3(NC(=O)c4ccc5c(C6CCCCC6)c(-c6ccccn6)n(C)c5c4)CCCNC3)cc12 , please?
35

====

Exercise: state measured log10(half-life at 10 µM) for each of the compounds provided.
# Procedure details: Half life in human liver microsomes at 10 uM
# Experimental context: microsomes
In plain terms, each number is the log10 of measured half-life at 10 µM in min.

Form field: reported log10(half-life at 10 µM) of Cc1c(C(=O)O)sc2ccc(NC(=O)[C@]3(NC(=O)c4ccc5c(C6CCCCC6)c(-c6ccccn6)n(C)c5c4)CCCNC3)cc12
1.97

Moving on to CN1CC[C@](NC(=O)c2ccc3c(C4CCCCC4)c(-c4ccccn4)n(C)c3c2)(C(=O)Nc2ccc(/C=C/C(=O)O)cc2)C1
1.66

Also, CN1CC[C@@](NC(=O)c2ccc3c(C4CCCCC4)c(-c4ccccn4)n(C)c3c2)(C(=O)Nc2ccc(/C=C/C(=O)O)cc2)C1 please.
2.66

Another compound to check: Cn1c(-c2ccccn2)c(C2CCCCC2)c2ccc(C(=O)NC3(C(=O)Nc4ccc(C(=O)O)cc4)CCC3)cc21
1.32

# repeat for Cn1c(-c2ccccn2)c(C2CCCCC2)c2ccc(C(=O)NC3(C(=O)Nc4ccc(/C=C/C(=O)O)cc4)CCC3)cc21
1.70
